test: recombinant barcode read abundance after kanamycin selection (control-corrected) (log10(CPM+1)); higher = more efficient recombination; sequences stand for … in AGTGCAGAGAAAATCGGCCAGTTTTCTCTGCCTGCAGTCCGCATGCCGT…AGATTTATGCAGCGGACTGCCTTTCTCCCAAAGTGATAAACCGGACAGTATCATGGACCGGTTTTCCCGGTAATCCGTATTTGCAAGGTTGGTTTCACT; site = the 11-nt target;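 further: IS621 recombinase and bridge RNA in Escherichia coli cells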
If the reported recombinant barcode read abundance (log10) equals or exceeds 0.2, assign TRUE. If not, assign FALSE.

Could you tell me if the measured recombinant barcode read abundance (log10) of AAGCGTGCTTGGGTTCTAACCTGTTGCCT (site AAGCGTTCTAG) reaches 0.2 or more?
TRUE

Check this sequence for recombinant barcode read abundance (log10) at or above 0.2: CTACTAACTTGGGTTCTAACCTGTTGCTT (site CTACTAACTAT)
FALSE

Check this sequence for recombinant barcode read abundance (log10) at or above 0.2: AGTCAAACTTGGGTTCTAACCTGTTGCCT (site AGTCATACTAG)
FALSE

# check: recombinant barcode read abundance (log10) of TAGGTCCCTTGGGTTCTAACCTGTTGCAT (site TAGGTCCCTAT) is greater than or equal to 0.2
TRUE

Form field: recombinant barcode read abundance (log10) at least 0.2? Entry: ACAGGGTCTTGGGTTCTAACCTGTTGCCT (site AGAGGGTCTAG)
FALSE

Is recombinant barcode read abundance (log10) for GGAGGGTCTTGGGTTCTAACCTGTTGCTT (site CGAGGGTCTAA) at or above 0.2?
TRUE

Threshold query (recombinant barcode read abundance (log10) >= 0.2) on CACAGACCTTGGGTTCTAACCTGTTGCCT (site AACAGACCTAG)
FALSE

Cited source: the supplement of paper PMC11208160
